# Test system: S. maltophilia ATCC 13637
# Assay type: cell-based, Stenotrophomonas maltophilia
# Conditions: ATCC 13637, 48 h
Where a SMILES comes first, the peptide text is derived from it. The star is where a group is joined. Lauroyl = CCCCCCCCCCCC(=O)*
We begin with a simple list: items and their reported MIC.
Field: numeric (µg/mL). Do not append units.

Solved cases (4 shown):
# Compound, MIC / µg/mL
measured = [
    ("CCCCCCCCCCCC(=O)N[C@@H](CCCNC(=N)N)C(=O)N[C@@H](CCSC)C(=O)N[C@@H](Cc1c[nH]c2ccccc12)C(=O)N[C@@H](CCCNC(=N)N)C(N)=O [Lp-M, Lau-RMWR-NH2] (Lauroyl-RMWR-NH2)", 12.5),
    ("CCCCCCCCCCCC(=O)N[C@@H](CCCNC(=N)N)C(=O)N[C@@H](CCCNC(=N)N)C(=O)N[C@@H](Cc1c[nH]c2ccccc12)C(=O)N[C@@H](CCCNC(=N)N)C(N)=O [Lp-R, Lau-RRWR-NH2] (Lauroyl-RRWR-NH2)", 12.5),
    ("CCCCCCCCCCCC(=O)N[C@@H](CCCNC(=N)N)C(=O)N[C@@H](CCCNC(=N)N)C(=O)N[C@@H](Cc1ccccc1)C(=O)N[C@@H](Cc1c[nH]c2ccccc12)C(=O)N[C@@H](CCCNC(=N)N)C(=O)N[C@@H](CCCNC(=N)N)C(N)=O [Lp-F^RR, Lau-RRFWRR-NH2] (Lauroyl-RRFWRR-NH2)", 12.5),
    ("CCCCCCCCCCCC(=O)N[C@@H](CCCNC(=N)N)C(=O)N[C@@H](CCCNC(=N)N)C(=O)N[C@H](C(=O)N[C@@H](Cc1c[nH]c2ccccc12)C(N)=O)[C@@H](C)CC [Lau-RRIW, Lau-RRIW-NH2] (Lauroyl-RRIW-NH2)", 12.5),
]

Next compound, MIC to be filled in.
Lookup: For the compound shown here, CCCCCCCCCCCC(=O)N[C@@H](CCCNC(=N)N)C(=O)N[C@@H](CCCNC(=N)N)C(=O)N[C@@H](Cc1ccccc1)C(=O)N[C@@H](Cc1c[nH]c2ccccc12)C(N)=O [Lau-RRFW, Lau-RRFW-NH2] (Lauroyl-RRFW-NH2) , give the reported MIC.
Found: 6.25

* * *

# Tested on: P. aeruginosa ATCC 27853
# Assay type: cell-based, Pseudomonas aeruginosa
# Conditions: ATCC 27853, 24 h
Where a SMILES comes first, the peptide text is derived from it. The star is where a group is joined. Lauroyl = CCCCCCCCCCCC(=O)*; Decanoyl = CCCCCCCCCC(=O)*
Measured Property: MIC (µg/mL)
Answer format: numeric, µg/mL implied, no suffix.

# Molecule, MIC [µg/mL]
data = [
    ("CCCCCCCCCCCC(=O)N[C@@H](CCCNC(=N)N)C(=O)N[C@@H](C)C(=O)N[C@@H](Cc1c[nH]c2ccccc12)C(=O)N[C@@H](CCCNC(=N)N)C(N)=O [Lp-A, Lau-RAWR-NH2] (Lauroyl-RAWR-NH2)", 25),
]

Lookup: Need MIC of CCCCCCCCCCCC(=O)N[C@@H](CCCNC(=N)N)C(=O)N[C@@H](CCCNC(=N)N)C(=O)N[C@@H](Cc1ccccc1)C(=O)N[C@@H](Cc1c[nH]c2ccccc12)C(=O)N[C@@H](CCCNC(=N)N)C(=O)N[C@@H](CCCNC(=N)N)C(N)=O [Lp-F^RR, Lau-RRFWRR-NH2] (Lauroyl-RRFWRR-NH2) , thanks.
Found: 12.5

Lookup: Can you look up the measured MIC of CCCCCCCCCCCC(=O)N[C@@H](CCCNC(=N)N)C(=O)N[C@@H](CO)C(=O)N[C@@H](Cc1c[nH]c2ccccc12)C(=O)N[C@@H](CCCNC(=N)N)C(N)=O [Lp-S, Lau-RSWR-NH2] (Lauroyl-RSWR-NH2) for me?
Found: 25

Lookup: Value lookup for MIC; key = CCCCCCCCCC(=O)N[C@@H](CCCNC(=N)N)C(=O)N[C@@H](Cc1ccccc1)C(=O)N[C@@H](Cc1c[nH]c2ccccc12)C(=O)N[C@@H](CCCNC(=N)N)C(N)=O [Lp-F^Dec, Dec-RFWR-NH2] (Decanoyl-RFWR-NH2)
Found: 50
